molecular target: T1, His-tagged PCSK9Δhelix (human, UniProt Q8NBP7 31-152; Q8NBP7 168-692); assay: TR-FRET competition; His-PCSK9Δhelix, competitor Ab20
T1 construct: Construct M1-Q692 with engineered TEV site, cut by TEV protease; new N-terminus of the catalytic domain is S-A168; also called His-PCSK9Δhelix
T1 sequence (Q8NBP7 31-152, stated change not applied, chain 1 of 2): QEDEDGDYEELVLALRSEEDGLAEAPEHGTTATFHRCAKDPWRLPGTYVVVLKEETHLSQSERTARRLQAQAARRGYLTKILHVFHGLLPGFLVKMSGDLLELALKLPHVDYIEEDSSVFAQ
T1 sequence (Q8NBP7 other isoform, or with tags, fused parts or gaps mutant, chain 2 of 2): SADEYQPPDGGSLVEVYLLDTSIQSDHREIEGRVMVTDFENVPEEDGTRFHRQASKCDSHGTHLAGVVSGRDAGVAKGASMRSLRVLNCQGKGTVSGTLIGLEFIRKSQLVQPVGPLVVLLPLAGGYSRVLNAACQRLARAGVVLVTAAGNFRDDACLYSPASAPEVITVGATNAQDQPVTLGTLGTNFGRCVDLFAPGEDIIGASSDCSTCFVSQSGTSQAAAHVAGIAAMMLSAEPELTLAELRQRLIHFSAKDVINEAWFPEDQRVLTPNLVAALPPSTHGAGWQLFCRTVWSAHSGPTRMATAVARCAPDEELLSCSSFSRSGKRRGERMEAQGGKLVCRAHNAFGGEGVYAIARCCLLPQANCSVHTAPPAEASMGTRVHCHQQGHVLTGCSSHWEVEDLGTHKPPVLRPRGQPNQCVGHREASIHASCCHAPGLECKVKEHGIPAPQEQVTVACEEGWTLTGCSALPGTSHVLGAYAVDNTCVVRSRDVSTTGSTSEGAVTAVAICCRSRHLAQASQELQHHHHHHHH
Square brackets hold non-standard residues; d marks the D form. Ends that are not written are not given here. hArg = N=C(N)NCCCC[C@H](N)C(=O)O
Quantity Kind: pIC50
One number for each entry, as −log10 of the molar value.

Known pIC50 results, listed for orientation:
- Binder: "WNLV[hArg]IGLLQ-NH2 (N-terminus assumed; SMILES CC[C@H](C)[C@H](NC(=O)[C@H](CCCCNC(=N)N)NC(=O)[C@@H](NC(=O)[C@H](CC(C)C)NC(=O)[C@H](CC(N)=O)NC(=O)[C@@H](N)Cc1c[nH]c2ccccc12)C(C)C)C(=O)NCC(=O)N[C@@H](CC(C)C)C(=O)N[C@@H](CC(C)C)C(=O)N[C@@H](CCC(N)=O)C(N)=O, also called WNLV(homoR)IGLLQ-NH2) [Compound 237]"
  Observed: 6.48
- Binder: "WNLVRIGLTR (also: further groups not given here, Structure printed only as a drawing) [Compound 170]"
  Observed: 5.51
- Binder: "WNLV[hArg]IGLLR (also: end groups and other groups only in drawing, Structure printed only as a drawing) [Compound 203]"
  Observed: 5.80

Note: attention shifts to another entry.
Consider the binder shown here: WNLVRIGLLR (also: further groups not given here, Structure printed only as a drawing) [Compound 151] What is its recorded pIC50? 5.60
